molecular target: human D2 receptor (Homo sapiens (Human), UniProt P14416); assay: Test 1: binding activity for human D2 receptor ([3H]Spiperone); conditions: ratio of D2 Ki to 5-HT1A Ki
Sequence (P14416 whole entry): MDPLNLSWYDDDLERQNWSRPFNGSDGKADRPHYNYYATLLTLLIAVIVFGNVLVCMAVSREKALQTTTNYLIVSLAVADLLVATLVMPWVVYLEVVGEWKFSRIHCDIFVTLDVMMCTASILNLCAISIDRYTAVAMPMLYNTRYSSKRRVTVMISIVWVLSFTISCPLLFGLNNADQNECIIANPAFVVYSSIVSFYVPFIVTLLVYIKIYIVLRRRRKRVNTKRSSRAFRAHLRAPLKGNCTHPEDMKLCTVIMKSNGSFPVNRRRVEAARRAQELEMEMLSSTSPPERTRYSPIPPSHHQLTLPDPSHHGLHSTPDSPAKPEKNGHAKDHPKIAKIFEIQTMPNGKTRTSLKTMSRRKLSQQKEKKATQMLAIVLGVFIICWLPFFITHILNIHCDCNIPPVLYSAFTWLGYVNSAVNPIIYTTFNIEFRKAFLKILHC
Measurement Type: D2 Ki/5-HT1A Ki
Form field (numeric): enter value without unit.

- Cc1ccc2c(C3CCN(CCn4ccc5cccnc5c4=O)CC3)noc2c1: 3.8
- Cn1cnc2c1CCCN(CCN1CCC(c3noc4ccccc34)CC1)C2=O: 17
- Cn1ncc2c1C(=O)N(CCN1CCN(c3nsc4ccccc34)CC1)CC2: 63
- Cc1cncc2c1CCN(CCN1CCN(c3noc4ccccc34)CC1)C2=O: 5.8
- Cn1ncc2c1C(=O)N(CCN1CCC(c3noc4ccccc34)CC1)CC2: 9

Now consider a different compound.
Inquiry: Any idea what its D2 Ki/5-HT1A Ki is? The compound is `Cn1ccc2c1CCN(CCN1CCC(c3noc4ccccc34)CC1)C2=O`
Reply text: 19
